tested on: P. falciparum (Pf) 3D7 parasites; experiment: P. falciparum LDH viability assay; type: cell-based; conditions: Plasmodium falciparum, 3D7, 72 h, LDH activity, 72 h at 37 °C; mean and SD of 3 independent experiments
Structures can show the parent of a compound that is named as a salt.
MEASUREMENT_KIND: EC50 (nM)
The reply should contain only the number, in nM.

Worked cases, answers included:
COMPOUND: C[C@@H](NC[C@@H](O)[C@H](Cc1ccccc1)NC(=O)[C@@H](CO)NC(=O)OCc1ccccc1)c1ccccc1 [Compd 40, Cbz‐D‐Ser‐Phe‐HEA‐Bn(CH3)⋅TFA]
TARGET: P. falciparum (Pf) 3D7 parasites
EC50 (nM): 570

COMPOUND: CC(C)C[C@H](NC(=O)[C@H](CO)NC(=O)OCc1ccccc1)[C@H](O)CN[C@H](C)c1ccccc1 [Compd 41, Cbz‐Ser‐Leu‐HEA‐Bn(CH3)⋅TFA]
TARGET: P. falciparum (Pf) 3D7 parasites
EC50 (nM): 3200

COMPOUND: C[C@@H](NC[C@@H](O)[C@H](Cc1ccccc1)NC(=O)[C@H](CO)NC(=O)OCc1ccccc1)c1ccccc1 [Compd 38, Cbz‐Ser‐Phe‐HEA‐Bn(CH3)⋅TFA]
TARGET: P. falciparum (Pf) 3D7 parasites
EC50 (nM): 90

COMPOUND: CC(NCC(O)C(Cc1ccccc1)NC(=O)C(Cc1ccccc1)NC(=O)C(CO)NC(=O)OCc1ccccc1)c1ccccc1 (stereo not drawn) [Compd 22, Cbz‐Ser‐Phe‐Phe‐HEA‐Bn(CH3)⋅TFA]
TARGET: P. falciparum (Pf) 3D7 parasites
EC50 (nM): 1400

// below: EC50 requested for another compound
Challenge: Look up EC50 for this compound: CC(O)[C@H](NC(=O)OCc1ccccc1)C(=O)N[C@@H](Cc1ccccc1)[C@H](O)CN[C@H](C)c1ccccc1 (stereo partly drawn) [Compd 42, Cbz‐Thr‐Phe‐HEA‐Bn(CH3)⋅TFA]
Response given: 260
